Entries with reported AC50 on Alpha-2B adrenergic receptor (Homo sapiens)
Sequence (P18089 whole entry): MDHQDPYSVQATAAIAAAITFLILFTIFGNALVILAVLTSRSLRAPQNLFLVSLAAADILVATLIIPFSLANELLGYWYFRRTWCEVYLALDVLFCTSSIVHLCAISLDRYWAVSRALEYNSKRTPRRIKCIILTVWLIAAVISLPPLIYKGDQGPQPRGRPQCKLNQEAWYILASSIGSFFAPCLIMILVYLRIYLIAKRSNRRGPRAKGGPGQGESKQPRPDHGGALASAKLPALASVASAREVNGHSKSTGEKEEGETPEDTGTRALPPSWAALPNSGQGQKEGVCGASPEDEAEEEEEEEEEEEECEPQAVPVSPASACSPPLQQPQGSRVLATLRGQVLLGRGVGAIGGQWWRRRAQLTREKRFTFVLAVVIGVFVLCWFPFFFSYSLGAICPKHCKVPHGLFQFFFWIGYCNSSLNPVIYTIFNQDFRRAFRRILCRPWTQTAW

Look up AC50 with Alpha-2B adrenergic receptor (Homo sapiens) for this molecule: CCCC(CCC)C(N)=O [VALPROMIDE]
> 10 µM

Look up AC50 with Alpha-2B adrenergic receptor (Homo sapiens) for this molecule: C#CCOc1ccc(N)cc1C(=O)NCCCC [PARSALMIDE]
> 30 µM

Look up AC50 with Alpha-2B adrenergic receptor (Homo sapiens) for this molecule: O=[N+]([O-])c1ccc(O)c2ncccc12 [NITROXOLINE]
8.8 µM

Look up AC50 with Alpha-2B adrenergic receptor (Homo sapiens) for this molecule: Cc1cccc(N2CC(CO)OC2=O)c1 (centres undefined) [TOLOXATONE]
> 30 µM

Look up AC50 with Alpha-2B adrenergic receptor (Homo sapiens) for this molecule: C#C[C@]1(OC(C)=O)CC[C@H]2[C@@H]3CCC4=C/C(=N/O)CC[C@@H]4[C@H]3CC[C@@]21CC [NORGESTIMATE]
> 30 µM

Look up AC50 with Alpha-2B adrenergic receptor (Homo sapiens) for this molecule: Oc1ccc2c(c1)[C@@]13CCCC[C@@]1(O)[C@@H](C2)N(CC1CCC1)CC3 [BUTORPHANOL]
> 30 µM

Look up AC50 with Alpha-2B adrenergic receptor (Homo sapiens) for this molecule: CN(CC1(C)CCCO1)S(=O)(=O)c1ccc(Cl)c(S(N)(=O)=O)c1 (centres undefined) [MEFRUSIDE]
> 30 µM

Look up AC50 with Alpha-2B adrenergic receptor (Homo sapiens) for this molecule: CCC(=O)O[C@H]1CC[C@H]2[C@@H]3CCC4=CC(=O)CC[C@]4(C)[C@H]3CC[C@]12C [TESTOSTERONE PROPIONATE]
> 10 µM

Look up AC50 with Alpha-2B adrenergic receptor (Homo sapiens) for this molecule: CC(=O)O[C@H](CC(=O)[O-])C[N+](C)(C)C [ACETYLCARNITINE]
> 30 µM
